Target system: Runt-related transcription factor 1 (Homo sapiens) + Core-binding factor subunit beta (Homo sapiens) (UniProt Q01196+Q13951)
Sequence (Q01196 whole entry, looked up): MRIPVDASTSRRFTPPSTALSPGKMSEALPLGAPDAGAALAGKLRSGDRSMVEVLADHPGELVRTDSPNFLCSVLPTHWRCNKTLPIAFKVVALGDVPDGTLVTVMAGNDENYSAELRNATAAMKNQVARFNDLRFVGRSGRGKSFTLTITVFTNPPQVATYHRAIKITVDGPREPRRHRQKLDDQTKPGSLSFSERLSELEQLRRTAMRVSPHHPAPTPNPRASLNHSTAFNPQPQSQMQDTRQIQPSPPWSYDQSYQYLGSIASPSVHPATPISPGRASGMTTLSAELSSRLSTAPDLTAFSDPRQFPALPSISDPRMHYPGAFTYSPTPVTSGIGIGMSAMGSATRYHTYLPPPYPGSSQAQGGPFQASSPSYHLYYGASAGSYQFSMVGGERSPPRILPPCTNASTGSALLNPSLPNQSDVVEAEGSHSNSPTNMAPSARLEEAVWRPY
Sequence (Q13951 whole entry, looked up): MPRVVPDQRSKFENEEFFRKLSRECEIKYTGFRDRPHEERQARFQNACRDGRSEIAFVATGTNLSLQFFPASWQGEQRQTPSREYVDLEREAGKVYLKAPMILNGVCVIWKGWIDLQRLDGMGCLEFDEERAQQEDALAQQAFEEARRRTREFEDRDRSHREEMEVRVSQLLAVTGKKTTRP
Procedure details: qHTS Assay for Compounds Blocking the Interaction Between CBF-beta and RUNX1 for the Treatment of Acute Myeloid Leukemia: Hit Validation with Orthogonal Assay
Setup conditions: CBFbeta-RUNX1 binding orthogonal assay, biochemical; series mostly up to 41 µM
Screen size: about 1,600 compounds; about 25 (2%) were called active. Not shown: some 7% with an inconclusive outcome. Calls follow the shape of the dose curve; as a rule, active = well fitted inhibition curve with a large enough effect; inconclusive = small, poorly fitted or top-dose-only effect, or effect the other way; inactive = no such curve, though single readings can be large or run the other way. The full list was thinned out, with actives kept by preference.
Answer with one of the outcomes given here: label 1 = active, label 0 = inactive

// known answers, use as guide
1) CC(C)Cn1nc(NC(=O)c2cccs2)c2cc3ccccc3nc21    label 0
2) CCOc1ccc(/C(C)=N/NC(=O)Cn2nc([N+](=O)[O-])cc2C)cc1    label 0
3) CN(C)c1cc(-c2ccc(Cl)cc2Cl)oc(=O)c1Cl    label 0
4) Cc1onc(-c2ccccc2)c1C(=O)NC(=S)NNC(=O)c1ccco1    label 0

Consider now this further molecule.
# input Could you check what this test reported for O=C(O)C1=CC(=C(c2ccc(O)c(C(=O)O)c2)c2ccc(O)c(C(=O)O)c2)C=CC1=O ?
# output label 1

====

Target system: Runt-related transcription factor 1 (Homo sapiens) + Core-binding factor subunit beta (Homo sapiens) (UniProt Q01196+Q13951)
Procedure details: qHTS Assay for Compounds Blocking the Interaction Between CBF-beta and RUNX1 for the Treatment of Acute Myeloid Leukemia: Hit Validation with Orthogonal Assay
Setup conditions: CBFbeta-RUNX1 binding orthogonal assay, biochemical; series mostly up to 41 µM
The campaign covered roughly 1,600 compounds. About 25 (2%) were called active. Inconclusive results (about 7%) are left out. The call rests on the fitted dose curve; in most records, active means well fitted inhibition curve with a large enough effect; inconclusive means small, poorly fitted or top-dose-only effect, or effect the other way; inactive means no such curve, though single readings can be large or run the other way. What follows is part of a selection rich in actives, with near analogues and random picks from the rest.
Answer with one of the outcomes given here: active, inactive

// known answers, use as guide
1. Cc1[nH]c(=O)[nH]c1C(=O)CCCCC(=O)OCC(=O)Nc1ccccn1    active
2. O=C(NN1C(=O)C2CCCCC2C1=O)c1ccco1 (stereo unspecified)    inactive
3. Nc1c(Cl)ncnc1NCC(O)CO (stereo unspecified)    inactive
4. Cc1ccccc1NC(=S)Nc1ccccn1    inactive

# input Could you check what this test reported for COc1ccc(C2Sc3ccccc3N(CCN(C)C)C(=O)C2OC(C)=O)cc1 (stereo unspecified) ?
# output inactive

# input Could you check what this test reported for CCN1C/C(=C/c2cccs2)c2nc3ccccc3c(C(=O)O)c2C1 ?
# output inactive

====

Target system: Runt-related transcription factor 1 (Homo sapiens) + Core-binding factor subunit beta (Homo sapiens) (UniProt Q01196+Q13951)
Procedure details: qHTS Assay for Compounds Blocking the Interaction Between CBF-beta and RUNX1 for the Treatment of Acute Myeloid Leukemia: Hit Validation with Orthogonal Assay
Setup conditions: CBFbeta-RUNX1 binding orthogonal assay, biochemical; series mostly up to 41 µM
Hit rate of the full screen: of about 1,600 compounds, about 25 (2%) were called active. Not shown: some 7% with an inconclusive outcome. The call rests on the fitted dose curve; in most records, active means well fitted inhibition curve with a large enough effect; inconclusive means small, poorly fitted or top-dose-only effect, or effect the other way; inactive means no such curve, though single readings can be large or run the other way. Many of the other results were omitted from the sample, so actives are more common in it than they were.
Answer with one of the outcomes given here: active, inactive

// known answers, use as guide
1) CC(=O)COc1nc2c(c(-c3ccco3)c1C#N)CCc1ccccc1-2    inactive
2) COc1ccc2nc(-c3ccc(Cl)cc3)cc(C(=O)O)c2c1    inactive

# input Could you check what this test reported for Cc1cc(C)c(OCC(=O)N(Cc2ccc(N(C)C)cc2)C2CCS(=O)(=O)C2)c(C)c1 (stereo unspecified) ?
# output inactive

# input Could you check what this test reported for Cc1nc2c(c(=O)c3ccccc3n2C)c(=O)n1-c1ccccc1 ?
# output inactive

# input Could you check what this test reported for CCN(CC)c1ccc(/C=N/N2CCN(Cc3ccccc3Cl)CC2)c(O)c1 ?
# output inactive

# input Could you check what this test reported for COc1cccc(/C=N/NC(=O)c2cnccn2)c1OC ?
# output inactive

# input Could you check what this test reported for COc1cc(NCc2ccccc2O)c2ncccc2c1 ?
# output inactive

====

Target system: Runt-related transcription factor 1 (Homo sapiens) + Core-binding factor subunit beta (Homo sapiens) (UniProt Q01196+Q13951)
Procedure details: qHTS Assay for Compounds Blocking the Interaction Between CBF-beta and RUNX1 for the Treatment of Acute Myeloid Leukemia: Hit Validation with Orthogonal Assay
Setup conditions: CBFbeta-RUNX1 binding orthogonal assay, biochemical; series mostly up to 41 µM
Hit rate of the full screen: of about 1,600 compounds, about 25 (2%) were called active. Roughly 7% stayed inconclusive and do not appear here. Calls follow the shape of the dose curve; as a rule, active = well fitted inhibition curve with a large enough effect; inconclusive = small, poorly fitted or top-dose-only effect, or effect the other way; inactive = no such curve, though single readings can be large or run the other way. The entries come from a sample that favours actives as a whole.
Answer with one of the outcomes given here: Y for active, N for inactive

1. Cc1cccn(Cc2c(F)cccc2Cl)c1=O    N
2. CCCc1cc(=O)oc2c(CN(CC)CC)c(O)c(Cl)cc12    N
3. O=C(O[C@@H]1OC2COC(=O)c3cc(O)c(O)c(O)c3-c3c(cc(O)c(O)c3O)C(=O)O[C@@H]([C@H]1O)[C@@H]2O)c1cc(O)c(O)c(O)c1    Y

# input Could you check what this test reported for O=C1OCC2OC(O)C(O)C(O)C2OC(=O)c2cc(O)c(O)c(O)c2-c2c(O)c(O)c3oc(=O)c4c(c(O)c(O)c5oc(=O)c2c3c54)-c2c1cc(O)c(O)c2O (centres undefined) ?
# output Y

====

Target system: Runt-related transcription factor 1 (Homo sapiens) + Core-binding factor subunit beta (Homo sapiens) (UniProt Q01196+Q13951)
Procedure details: qHTS Assay for Compounds Blocking the Interaction Between CBF-beta and RUNX1 for the Treatment of Acute Myeloid Leukemia: Hit Validation with Orthogonal Assay
Setup conditions: CBFbeta-RUNX1 binding orthogonal assay, biochemical; series mostly up to 41 µM
Hit rate of the full screen: of about 1,600 compounds, about 25 (2%) were called active. Roughly 7% stayed inconclusive and do not appear here. The full list was thinned out, with actives kept by preference.
Test readout: outcome

Solved cases below.
1. CCCNC(=S)Nc1ccccc1    inactive
2. CCCSc1nnc(NC(=O)Nc2ccc(C)cc2)s1    inactive
3. COc1cc(/C=N/n2nnnc2N)cc(OC)c1OC    inactive
4. Cc1nc([N+](=O)[O-])cn1CC(O)c1ccccc1 (configuration not stated)    inactive
5. CCOc1nsc(OCC)n1    inactive

# input # get_value(readout='outcome', item= CSCC[C@H](NC(=O)OC(C)(C)C)C(=O)N/N=C/c1cccc2nccnc12 )
# output inactive

# input # get_value(readout='outcome', item= O=C(CCl)NC1(C(F)(F)F)C(=O)Nc2c1c(=O)[nH]c(=O)n2-c1ccccc1 (configuration not stated) )
# output inactive

# input # get_value(readout='outcome', item= COc1ccccc1/C=C/C=N/n1c(-c2ccccn2)n[nH]c1=S )
# output inactive

# input # get_value(readout='outcome', item= COc1ccc(/C=C/C(=O)Oc2cc(O)cc(O)c2)cc1 )
# output inactive

# input # get_value(readout='outcome', item= CCC(C)NC(=O)CC(C)C (configuration not stated) )
# output inactive

# input # get_value(readout='outcome', item= COc1ccc(NS(=O)(=O)c2ccc(Cl)s2)cn1 )
# output inactive

# input # get_value(readout='outcome', item= Cc1ccc(-n2ncc(-c3nn[nH]n3)c2N)cc1 )
# output inactive

====

Target system: Runt-related transcription factor 1 (Homo sapiens) + Core-binding factor subunit beta (Homo sapiens) (UniProt Q01196+Q13951)
Procedure details: qHTS Assay for Compounds Blocking the Interaction Between CBF-beta and RUNX1 for the Treatment of Acute Myeloid Leukemia: Hit Validation with Orthogonal Assay; also: potency is read from the fitted curve at half-maximal effect
Setup conditions: CBFbeta-RUNX1 binding orthogonal assay, biochemical; series mostly up to 41 µM
Protocol: NIH Chemical Genomics Center [NCGC] NIH Molecular Libraries Probe Production centers Network [MLPCN] Assay Submitter (PI): Paul Liu […] A TR-FRET (time resolved fluorescence resonance energy transfer) assay was performed using the same assay buffer, protein concentrations and incubation times as described previously in the AlphaScreen assay, except that terbium (Tb+) labeled anti-his-antibody and XL665 linked streptavidin were used to capture the binding signal. […]
About 25 (2%) of roughly 1,600 compounds were called active. Another 7% or so got no clear call; they are omitted. The full list was thinned out, with actives kept by preference.
Test readout: Potency

1) Cc1nc2ccccc2nc1N1CCCC1    inactive
2) CCN(CC)S(=O)(=O)c1ccc(/C=C/C(=O)Nc2ccc(N3CCOCC3)cc2)cc1    inactive
3) CCOC(=O)C1=C(C)N(CC(C)C)C(=O)/C1=C\c1cccs1    inactive
4) N[C@H](Cc1ccc(O)c(O)c1)C(=O)O    7.08 µM (active)

# input # get_value(readout='Potency', item= CC(C)(C)OC(=O)N1CCCN(C(=O)Nc2ccc(C(F)(F)F)cc2)CC1 )
# output inactive

# input # get_value(readout='Potency', item= NC(Cc1ccc(O)c(O)c1)C(=O)O (configuration not stated) )
# output 0.891 µM (active)

# input # get_value(readout='Potency', item= CC(=O)Nc1cccc(OCCCNC(=O)c2cccc3ccccc23)c1 )
# output inactive

# input # get_value(readout='Potency', item= CSc1cccc(NC(=O)Nc2ccccc2C(N)=O)c1 )
# output inactive

All figures here come from PubChem BioAssay AID504375.
